# tgt: UniProt P49286
# Sequence (P49286 whole entry): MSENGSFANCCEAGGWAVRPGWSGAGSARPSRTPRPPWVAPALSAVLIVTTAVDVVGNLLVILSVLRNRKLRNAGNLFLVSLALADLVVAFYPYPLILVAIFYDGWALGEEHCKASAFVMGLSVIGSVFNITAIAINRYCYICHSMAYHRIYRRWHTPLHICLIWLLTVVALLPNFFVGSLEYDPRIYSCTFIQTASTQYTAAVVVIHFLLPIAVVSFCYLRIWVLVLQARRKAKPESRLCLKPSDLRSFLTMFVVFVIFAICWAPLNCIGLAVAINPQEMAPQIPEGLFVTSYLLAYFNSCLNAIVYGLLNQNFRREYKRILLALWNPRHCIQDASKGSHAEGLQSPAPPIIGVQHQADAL
# measurement.description: CRE-Luc (luciferase reporter gene) assay, MT2
# Type: cell-based
# Design: expressed in transfected cells
# assay.context: HEK 293-pCREluc cells with MT2; inhibition of forskolin response
property.name: CRE-Luc Assay MT2 % Inh ± SEM of 1 μM Fsk (%)
Write the value in % as a bare number.

Answered examples (6):
[
  {
    "compound": "COc1ccc2[nH]c(I)c(CCNC(C)=O)c2c1 [Compound 2-IMT, 2-iodomelatonin, reference compound]",
    "tgt": "UniProt P49286",
    "assay.value": 61.9
  },
  {
    "compound": "COc1cccc(COc2cc3ccn(C)c(=O)c3cc2OC)c1",
    "tgt": "UniProt P49286",
    "assay.value": 73.9
  },
  {
    "compound": "COc1cc(COc2c(OC)ccc3c(=O)n(C)ccc23)cc(OC)c1",
    "tgt": "UniProt P49286",
    "assay.value": 60.8
  },
  {
    "compound": "COc1cc(COc2cc3ccn(C)c(=O)c3cc2OC)cc(OC)c1",
    "tgt": "UniProt P49286",
    "assay.value": 71.3
  },
  {
    "compound": "COc1cccc(COc2c(OC)ccc3c(=O)n(C)ccc23)c1",
    "tgt": "UniProt P49286",
    "assay.value": 61.0
  },
  {
    "compound": "COc1cc(COc2cc3c(=O)n(C)ccc3cc2OC)cc(OC)c1",
    "tgt": "UniProt P49286",
    "assay.value": 71.6
  }
]

Q: # input compound: Cn1ccc2cc(OC(=O)c3ccccc3)c(OC(=O)c3ccccc3)cc2c1=O ; wanted: its CRE-Luc Assay MT2 % Inh ± SEM of 1 μM Fsk
Result: 69.8

Q: Cool, now COc1cc2ccn(C)c(=O)c2cc1OCc1ccc(C(C)(C)C)cc1
Result: 17.8

Q: Cool, now COc1ccc2c(=O)n(C)ccc2c1OCc1ccc(C)cc1
Result: 61.3

Q: Cool, now COc1cccc(COc2cc3c(=O)n(C)ccc3cc2OC)c1
Result: 70.2

Sourced from patent US8389544B2
